// reported melting point per item

{"columns": ["smilesStr", "melting point"],
 "data": [
  ["CS(=O)(=O)N1CCN(Cc2cc3nc(-c4ccc(OCCCCCCC(=O)NO)cc4)nc(N4CCOCC4)c3s2)CC1", "143 to 145 °C"],
  ["CN(Cc1cc2nc(-c3ccc(OCCN)nc3)nc(N3CCOCC3)c2s1)c1ncc(C(=O)NO)cn1", "110 to 115 °C"],
  ["O=C(CCCCN1CCN(Cc2cc3nc(-c4cccc5[nH]ncc45)nc(N4CCOCC4)c3s2)CC1)NO", "125 to 127 °C"],
  ["CN(Cc1cc2nc(-c3ccccc3CO)nc(N3CCOCC3)c2s1)c1ncc(C(=O)NO)cn1", "173 to 176 °C"],
  ["CN(Cc1cc2nc(-c3cccc(OCCO)c3)nc(N3CCOCC3)c2s1)c1ncc(C(=O)NO)cn1", "148 to 152 °C"],
  ["COc1ccc(-c2nc(N3CCOCC3)c3sc(C(C)(C)N(C)c4ncc(C(=O)NO)cn4)cc3n2)cn1", "175 to 178 °C"],
  ["CNc1ncc(-c2nc(N3CCOCC3)c3sc(CN(C)c4ncc(C(=O)NO)cn4)cc3n2)cn1", "183 to 187 °C"],
  ["CN(Cc1cc2nc(-c3cc(F)cc4[nH]ncc34)nc(N3CCOCC3)c2s1)c1ncc(C(=O)NO)cn1", "215 to 217 °C"],
  ["CN(Cc1cc2nc(-c3cccc(SCCO)c3)nc(N3CCOCC3)c2s1)c1ncc(C(=O)NO)cn1", "188 to 192 °C"],
  ["CS(=O)(=O)N1CCN(Cc2cc3nc(-c4ccc(OCCCCC(=O)NO)cc4)nc(N4CCOCC4)c3s2)CC1", "140 to 144 °C"],
  ["COc1ccc(-c2nc(N3CCOCC3)c3sc(S(=O)(=O)Nc4ncc(C(=O)NO)cn4)cc3n2)cn1", "259 to 265 °C"],
  ["CN(Cc1cc2nc(-c3cccc4[nH]ncc34)nc(N3CCOCC3)c2s1)c1ccc(/C=C/C(=O)NO)cc1", "188 to 190 °C"],
  ["CN(Cc1cc2nc(-c3cccc(CO)c3)nc(N3CCOCC3)c2s1)c1ncc(C(=O)NO)cn1", "160 to 164 °C"],
  ["CN(Cc1cc2nc(-c3ccc4[nH]cnc4c3)nc(N3CCOCC3)c2s1)c1ncc(C(=O)NO)cn1", "231 to 239 °C"],
  ["Nc1ncc(-c2nc(N3CCOCC3)c3sc(NCCCC(=O)NO)cc3n2)cn1", "220 to 230 °C"],
  ["Cc1ccc(-c2nc(N3CCOCC3)c3sc(CN(C)c4ncc(C(=O)NO)cn4)cc3n2)cc1", "170 to 172 °C"],
  ["O=C(CCCNCc1cc2nc(-c3cccc4[nH]ncc34)nc(N3CCOCC3)c2s1)NO", "149 to 152 °C"],
  ["CN(CCCC(=O)NO)Cc1cc2nc(-c3cccc4[nH]ncc34)nc(N3CCOCC3)c2s1", "115 to 118 °C"],
  ["CN(Cc1cc2nc(-c3ccc4c(c3)NCCO4)nc(N3CCOCC3)c2s1)c1ncc(C(=O)NO)cn1", "170 to 183 °C"],
  ["Nc1ccc(-c2nc(N3CCOCC3)c3sc(C(=O)NCC4CCN(c5ncc(C(=O)NO)cn5)CC4)cc3n2)cc1", "232 to 238 °C"],
  ["CS(=O)(=O)N1CCN(Cc2cc3nc(-c4cccc5nn(CCCCC(=O)NO)cc45)nc(N4CCOCC4)c3s2)CC1", "146 to 169 °C"],
  ["CN(Cc1cc2nc(-c3cnc(N)nc3)nc(N3CCOCC3)c2s1)c1ncc(C(=O)NO)cn1", "175 to 181 °C"],
  ["Cc1nc2ccc(-c3nc(N4CCOCC4)c4sc(CN(C)c5ncc(C(=O)NO)cn5)cc4n3)cc2[nH]1", "230 to 233 °C"],
  ["CN(Cc1cc2nc(-c3ccc(C(N)=O)cc3)nc(N3CCOCC3)c2s1)c1ncc(C(=O)NO)cn1", "200 to 202 °C"],
  ["Cc1ncc(-c2nc(N3CCOCC3)c3sc(CN(C)c4ncc(C(=O)NO)cn4)cc3n2)cn1", "184 to 186 °C"],
  ["C[C@H](O)c1cccc(-c2nc(N3CCOCC3)c3sc(CN(C)c4ncc(C(=O)NO)cn4)cc3n2)c1", "168 to 172 °C"],
  ["CN(Cc1cc2nc(-c3ccc(C#N)cc3)nc(N3CCOCC3)c2s1)c1ncc(C(=O)NO)cn1", "214 to 216 °C"],
  ["Cc1ncc(-c2nc(N3CCOCC3)c3sc(NCCCCC(=O)NO)cc3n2)cn1", "248 to 252 °C"],
  ["CN(Cc1cc2nc(-c3ccc(N)c(Cl)c3)nc(N3CCOCC3)c2s1)c1ncc(C(=O)NO)cn1", "241 to 246 °C"],
  ["CN(Cc1cc2nc(-c3ccc(N)c(CO)c3)nc(N3CCOCC3)c2s1)c1ncc(C(=O)NO)cn1", "195 to 200 °C"]
]}
